study.target: Tyrosine-protein kinase ITK/TSK (Homo sapiens, UniProt Q08881)
Sequence (Q08881 whole entry): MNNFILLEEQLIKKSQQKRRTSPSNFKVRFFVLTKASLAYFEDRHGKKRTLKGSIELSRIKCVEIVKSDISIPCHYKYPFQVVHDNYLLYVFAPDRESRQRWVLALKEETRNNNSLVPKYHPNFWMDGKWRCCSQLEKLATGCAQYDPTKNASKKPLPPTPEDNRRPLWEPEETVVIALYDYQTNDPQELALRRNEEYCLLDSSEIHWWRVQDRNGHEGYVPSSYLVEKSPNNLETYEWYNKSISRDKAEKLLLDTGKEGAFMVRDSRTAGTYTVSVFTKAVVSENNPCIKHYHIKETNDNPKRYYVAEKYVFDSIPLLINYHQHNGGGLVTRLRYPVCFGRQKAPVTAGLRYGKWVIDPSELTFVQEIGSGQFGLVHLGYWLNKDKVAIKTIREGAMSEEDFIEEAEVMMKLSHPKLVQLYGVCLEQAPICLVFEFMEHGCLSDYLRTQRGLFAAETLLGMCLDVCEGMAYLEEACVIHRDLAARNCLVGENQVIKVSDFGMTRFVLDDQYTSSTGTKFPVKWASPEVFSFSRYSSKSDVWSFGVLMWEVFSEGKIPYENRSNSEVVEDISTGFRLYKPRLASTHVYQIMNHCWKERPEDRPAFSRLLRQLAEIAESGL
test.details: Binding affinity to ITK by DELFIA-based molecular assay
reported.endpoint: IC50 (nM)

a = CC(C)(O)Cn1/c(=N/C(=O)c2ccc(-c3cn[nH]c3)s2)[nH]c2cc(CN3CCCCC3CO)ccc21 (stereo unspecified)
b = CC(C)(O)Cn1c(NC(=O)c2ccc(-c3cn[nH]c3)s2)nc2cc(CNc3ccccc3)ccc21
Lowest IC50? choose a or b Identify your selection by its label.
b

a = C[C@@H](N(C)Cc1ccc2c(c1)nc(NC(=O)c1ccc(-c3cn[nH]c3)s1)n2CC(C)(C)O)C(C)(C)C
b = CC(C)(O)Cn1/c(=N/C(=O)c2ccc(-c3cn[nH]c3)s2)[nH]c2cc(CN3CCOCC3)ccc21
c = Cc1ncc(-c2ccc(C(=O)Nc3nc4cc(CNC5CCCCC5)ccc4n3CC(C)(C)O)s2)o1
List from greatest to least IC50. List the labels in the requested order.
c, b, a

a = CC1COCC(C)N1Cc1ccc2c(c1)[nH]/c(=N\C(=O)c1ccc(-c3cn[nH]c3)s1)n2CC(C)(C)O (stereo unspecified)
b = CC(C)(O)Cn1/c(=N/C(=O)c2ccc(-c3cn[nH]c3)s2)[nH]c2cc(CN3CCCCC3)ccc21
c = CN(Cc1ccc2c(c1)nc(NC(=O)c1ccc(-c3cn[nH]c3)s1)n2CC(C)(C)O)C1CCCCC1
List from greatest to least IC50. List the labels in the requested order.
b, c, a
(b: 3 nM, c: 2 nM, a: 1 nM)
